Test: yeast display, Sf9 membrane polyspecificity reagent, FACS + sequencing; frameworks hold sequencing errors
Readout name: polyreactivity (PSR sort gate)

INSERT INTO measurements (sequence_chain, readout_name, reported_measurement) VALUES
  ('QVQLVESGGGLVQAGGSLRLSCAASGSTYRVKAMGWYRQAPGKEREFVAAITRGGSTNYADSVKGRFTISRDNAMNTVYLQMNSLKPEDTAVYYCATAYRGRAWGYVYWGQGTQVTVSS', 'polyreactivity (PSR sort gate)', 'high polyreactivity'),
  ('QVQLVESGGCLVQAGGSLRLSCAASGSTFRHYAMGWYRQQPGKERELVASISKSAGRTYYADSVKGRFTISRDIAKNTVNLQMNSLKPEDTAVYYCAAYRIHVYPAGLAWQYYYELDYWGQGTQLTVSS', 'polyreactivity (PSR sort gate)', 'high polyreactivity'),
  ('QVHLVESGGGLVQAGGSLRLSCAASGLIFVKYALGWYRQAPGKEREFVAAITRSGGTTYYADSVKGRFTISRDNAKNTVYLQMNSLKPEDTAVYYCAAGVVIYFFGGGDYWGQGTQVTVSS', 'polyreactivity (PSR sort gate)', 'low polyreactivity'),
  ('QVQLVESGGGLVQAGGSLRLSCAASGSIFSSYAMGWYRQAPGKERELVAAITTRGDSTRYADSVKGRFTISRDNAKNTVYLQMNSLKPEDTAVYYCAARRRGASKYGYWGQGTQVTVSS', 'polyreactivity (PSR sort gate)', 'high polyreactivity'),
  ('QVQLVESGGGLVQAGGSLRLSCAASGLTFGYYAMGWYRQAPGKERELVAAISSSGGRTYYADSVKGRFTISRDNAKNTVYLQMNSLKPEDSAVYYCAKSRYATQTDYNYWGQGTQVTVSS', 'polyreactivity (PSR sort gate)', 'high polyreactivity'),
  ('QVQLVESGVGLVQAGGRLRLSCAASGSIFASSAMGWYRKAPGKERELVAVINSYDRTNYADSVKGRFTISRDNAKNTVYLKMNSLKPEDTAVYYCNADAIRIIPAYDYWGQGTQVTVSS', 'polyreactivity (PSR sort gate)', 'low polyreactivity'),
  ('QVQLVESGGGLVQAGGSLRLSCAASGRTFTHYDMGWYRQAPGKERELVAAISSGCGTYYADSVKGRFTISRDNAKNTVYLQMNSLKPEDTAVYYCNADYTNYHDPFRTYGYWGQGTQVTVSS', 'polyreactivity (PSR sort gate)', 'low polyreactivity'),
  ('QVQLVESGGGLVQAGGSLRLSCGASGFTFSPYAMGWYRQAPGKERELVAVISGGGSTYYADSVKGRFTISRDNAKNTVYLQMNSLKPEDTAGYYCAKRFYRSYYWGQGTQVTVSS', 'polyreactivity (PSR sort gate)', 'high polyreactivity'),
  ('QVQLVESGGGLVQAGGSLRLSCAASGGIFRIYAMGGYRQAPGKERELVAAISRSGGTTYYADSVKGRFTISRDNAKNTVDLQMNSLKPEDTAVYYCNARYYQSRHVNDVPNYYWGHGTQVTVSS', 'polyreactivity (PSR sort gate)', 'high polyreactivity'),
  ('QVQLVESGGGLVQAGGSLRLSCAASGFTFGSNAMGWYRQAPGKERELVAAISSRGGRTYYADSVKGRFTISRDNAKNTVYLQMNSLKPEDTAVYYCAKYRSYRGPYNYWGQGTQVTVSS', 'polyreactivity (PSR sort gate)', 'high polyreactivity'),
  ('QVQLVESGGGLVQAGGSLRLSCAASGSIFSSNAMGWYIQAPGKERELVAAITSGGSTTYADSVKGRFTISRDNAKNTVNLQMNSLKPEDTAVYYCAADPVYRYYHGWTYLDYDYWGQGTQVTVSS', 'polyreactivity (PSR sort gate)', 'low polyreactivity');

----------
Assay: yeast display, Sf9 membrane polyspecificity reagent, FACS + sequencing; frameworks hold sequencing errors
Readout name: polyreactivity (PSR sort gate)

INSERT INTO measurements (sequence_chain, reported_measurement) VALUES
  ('HGQLVESGGGLVQAGGSLRLSCAASGVTFSYYAMGWYRQGPGKDRELVAAITSSAGSTYYADSVKGRFTISRDNAKNTVYLQMNSLKPEDSALYYCNAVYSKLNGGYDYWGQGTQVTVSS', 'low polyreactivity'),
  ('QVQLVESGGGLVQAGGSLRLSCAASGITFPRNAMGWYRQAPGKERELVAAISARGGNTYYADSVKGRFTISRDNSKNTVYLQMNSLKPEDTAVYYCNALGSSYSEPSEYDYWGQGTQVTVSS', 'low polyreactivity'),
  ('QVQLVESGGGLVQAGGSLRLSCAASGRIHTYAMGWYRQAPGKERELVAAISFSGGSTYYADSVKGRFTISRDNAKNTVYLQMNSLKPEDTAVYYCAAGGGPNYFVDYGIRYDNWGQGTQVTVSS', 'low polyreactivity'),
  ('QVQLVESGGGLVQAGGSLRLSCASSGITFGRNTMGWYRQAPGKERELVAAIDSGGNTYADSVKGRFTISRDNAKNTVYLQMNSLKPEDTAVYYCDVDGGEFSSYGYWGQGTQVTVSS', 'low polyreactivity'),
  ('QVQLVESGGGLVQAGGSLRLSCAASGRTFNRNAMGWYRPAPGKERELVAAISWGGSRTYYADSVKGRFTISRDNAKNTVYLQMNSLKPEDTAVYYCAVDGFRGRSHGANDYWGQGTQVTVSS', 'high polyreactivity'),
  ('QDQLVESGGSLVQAGGSLRLSCASSGSIFKGNVMGCYRQAPGKERELVAAITWSAGSTYYADSVKGRFTISRDNAKNTVYLQMNRLKPEDTAVYYCNTDRYHGVDFDYWGQGTQVSVSS', 'high polyreactivity'),
  ('QVQLVESGGGLVQAGGSLRLSCAASGFIFARNVMGWSRQAPGKERELVAAISWSGGSTYYADSVKGRFTISRDNAKNTVYLQMNSLKPEDTAVYYCNKQFPFSKYYIMGYWGQGTQVTVSS', 'high polyreactivity'),
  ('QVQLVESGGGLVQAGGSLRLSCAASGRIFRYYAMGWYRQPPGKERELVAAISSSGGRTYYADSVKGRFTISRDNAKNTVYLQMNSLKPEDTAVYYCAADAPNFGLYRDKDYDYWGQGTQVTVSS', 'high polyreactivity'),
  ('QVQLVESGGGLVHAGGSLRLSCAASGSIFVRNDMGWYRPAPGKERELVAVITRSAGGTYYADSVKGRFTISRDTAKNSVYFQMNSLKPEDTAFYYCAASPSTPNKYGSWGHGTQVTVSS', 'high polyreactivity'),
  ('QVQLVESGGGLVQAGGSLRLSCAASGSIFGRNAMGWYRQAPGKERELVAVISKRSGNTYYADSVKGRFTISRDNAKNTVYLQLNSLKPEDTAVYYCNAVDQKLLRYDYWGQGTQVTVSS', 'high polyreactivity'),
  ('QVQLVESGAGLVQAGGSLRISCAASVITFIPYAMGWYRQAPGKERELLASISDGGGTNYADSVKGRFTISRDNAKNTVYLQMNSLKTEDTAVYYCATDASTYAYYGGYYWGHGTQVTVSS', 'low polyreactivity'),
  ('QVQRVDSGGGLVQAGGSLRLSCAASGITLLRYTMGWYRQAPGKERELLASITKRGGSTYYADSVKGRFTISRDNAKNTVYLQMNSLKPEDTAVYYCNADRHNSYYRKWDQLDMDYWGQGTQVTVSS', 'high polyreactivity'),
  ('QVQLVESGGGLVQAGGSLRLSCAASGSIFKGYAMGRYIQAPGKERELVAAISSSGGSTYYADSVKGRFTISRDNAKNTVYLQMNSLKPEDTAVYYCNTDRYYTYDYLGQGTQVTVSS', 'low polyreactivity'),
  ('QVQLVESGGGLVQAGGSLRLSCAASGLIFSVYAMGWYRQAPGKERELVAAISWSGSTYYADSVKGRFTISRDNAKNTVYLQMNSLKPEDTAVYYCAAEYDYDHFYWMDYWGQGTQVTVSS', 'high polyreactivity'),
  ('QVQLVESGGGLVQAGGSLRLSCAPSGFIFGSYAMGWYTQAPGKERELVAAISRSGGRTYYADSVKGRFTISRDNAKNTVYLQMNSLKPEDSAVYYCAAVHLLVYPTYDSWGQGTQVTVSS', 'high polyreactivity'),
  ('QVQLVESGGGLVQAGGSLRLSCAASGRTFQRNAMGWYRQAPGKERELVAAITSGSRTNYADSVKGRFTISRDNAKNTVFLQMNSLKPEDTAVYYCAADYTWRNNYWGQGTQVTVSS', 'high polyreactivity'),
  ('QVQLVESGGGLVQAGGSLRLSCAASGFTFQFYAMGWYRQAPGKERELVAAITWSGGSTYYADSVKGRFTISRDNAKNSVYLQLKSLKPEDTAVYFCAKDRRTYLSYIYDYWGQGTQVTVSS', 'high polyreactivity'),
  ('QVQLVESGGGLVQAGGSLRLSCAASGFIFYYYAMGWYRQAPGKERELVAAISWSGGITYYADSVKGRFTISRDNAKNTVYLQMNSLKPEDTAVYYCNAVSSGDMDYWGQGTQVTVSS', 'high polyreactivity'),
  ('QVQLVESGGGLGQAGGSLRLSCAASGSIFPEYVMGWNRQAPGKERELVAAISWSGGSTYYADSVKGRFTISRDNAKNPVFLQMNSLKPEDTAVYYCNRVPSWRIDYDYWGQGTQVTVSS', 'low polyreactivity'),
  ('QVQLVESGGGLVQAGGSLRLSCAASGIIFRPYAMGWYRQAPGKERELVAAITWSGTSTYYADSVKGRFTISRDNAKNTVYLQMNSLKPEDTAVYYCAATWSYGVSWYEYWGQGTQVTVSS', 'high polyreactivity'),
  ('QVQLEESGGGLVQAGGSLRLSCAASGFIFSSNAMGWYRQAPGKESQLVARITRSDGSTYYADSVKGRFTISRDSAKNTVYLQMNSLKPEDTAFDYCAKGRDATHYEYYLYSMDYWGQGTQVTVSS', 'low polyreactivity');
